molecular target: Glycogen synthase kinase-3 beta (Homo sapiens, UniProt P49841); experiment: Inhibition of recombinant GSK-3beta (unknown origin) using GS peptide as substrate in presence of ATP incubated for 1 hrs by ADP-Glo kinase assay
Sequence (P49841 whole entry): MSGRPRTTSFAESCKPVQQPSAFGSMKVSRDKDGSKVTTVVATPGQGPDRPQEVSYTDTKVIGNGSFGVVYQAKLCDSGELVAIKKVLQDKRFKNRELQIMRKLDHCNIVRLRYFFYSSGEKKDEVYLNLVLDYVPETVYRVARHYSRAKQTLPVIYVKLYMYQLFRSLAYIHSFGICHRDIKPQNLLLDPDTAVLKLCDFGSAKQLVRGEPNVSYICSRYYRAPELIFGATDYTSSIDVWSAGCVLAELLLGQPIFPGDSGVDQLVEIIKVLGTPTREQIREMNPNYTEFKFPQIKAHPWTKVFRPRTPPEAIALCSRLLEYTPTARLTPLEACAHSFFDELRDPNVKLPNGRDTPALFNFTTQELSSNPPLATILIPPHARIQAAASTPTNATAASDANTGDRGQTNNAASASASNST
Parameter measured: IC50 (µM)
Numbers only, in µM.

Substance smiles	Parameter measured	Unit text	Endpoint value
O=C1/C(=C/c2c[nH]c3ncccc23)Oc2cc(OCc3cccc(F)c3)ccc21	IC50	µM	0.45

Now, please, on to the next compound.
IC50 reported for this compound CN(Cc1ccccc1)Cc1c(O)ccc2c1O/C(=C\c1ccc3c(c1)OCO3)C2=O : 0.31

====

tested on: Plasmodium falciparum; test: Antimalarial activity against chloroquine-resistant erythrocyte stage Plasmodium falciparum assessed as growth inhibition incubated for 72 hrs by SYBR Green I dye based fluorescence analysis; type: functional, organism-based
Parameter measured: pEC50
Answers are plain numbers, as −log10 of the molar value.

pEC50 reported for this compound O=C1/C(=C/c2cccc(-c3ccc(C(F)(F)F)cc3)c2)Nc2ccccc21 : 6.96
